Reference for the values: patent US20260042834A1

Biological target: T1, CRH (NT-Biotin) (human and mouse (same sequence), not fully specified; biotin at the N-terminus)
T1 peptide: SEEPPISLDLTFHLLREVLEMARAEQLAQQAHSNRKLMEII
Assay: ELISA, biotinylated CRH on streptavidin plate
The binders listed here are annotated with their EC50.
RECORDED ENDPOINT: EC50 (nM)

PR005662 (antibody, human IgG1, kappa, V domains shown, PTM-removal variant of PR004290) VH: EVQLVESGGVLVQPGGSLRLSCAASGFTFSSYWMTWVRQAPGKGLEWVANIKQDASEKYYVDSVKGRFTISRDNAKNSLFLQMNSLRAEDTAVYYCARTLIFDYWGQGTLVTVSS VL: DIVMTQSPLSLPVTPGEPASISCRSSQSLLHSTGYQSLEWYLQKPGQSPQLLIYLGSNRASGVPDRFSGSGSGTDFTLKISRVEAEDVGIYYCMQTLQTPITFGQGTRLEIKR
0.023
PR006153 (antibody, human IgG1, kappa, V domains shown, PTM-removal variant of PR004290) VH: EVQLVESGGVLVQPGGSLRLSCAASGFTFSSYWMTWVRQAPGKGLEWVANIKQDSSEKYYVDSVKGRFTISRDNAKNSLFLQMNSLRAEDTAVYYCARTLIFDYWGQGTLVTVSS VL: DIVMTQSPLSLPVTPGEPASISCRSSQSLLHSTGYSSLEWYLQKPGQSPQLLIYLGSNRASGVPDRFSGSGSGTDFTLKISRVEAEDVGIYYCMQTLQTPITFGQGTRLEIKR
0.019
PR005660 (antibody, human IgG1, kappa, V domains shown, PTM-removal variant of PR004290) VH: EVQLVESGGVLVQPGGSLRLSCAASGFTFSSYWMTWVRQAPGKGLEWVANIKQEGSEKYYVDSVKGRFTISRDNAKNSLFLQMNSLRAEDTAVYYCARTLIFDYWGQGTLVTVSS VL: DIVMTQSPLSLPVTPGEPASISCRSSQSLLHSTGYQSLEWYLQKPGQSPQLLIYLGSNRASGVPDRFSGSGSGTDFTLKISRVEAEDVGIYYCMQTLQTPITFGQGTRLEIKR
0.033
PR006152 (antibody, human IgG1, kappa, V domains shown, PTM-removal variant of PR004290) VH: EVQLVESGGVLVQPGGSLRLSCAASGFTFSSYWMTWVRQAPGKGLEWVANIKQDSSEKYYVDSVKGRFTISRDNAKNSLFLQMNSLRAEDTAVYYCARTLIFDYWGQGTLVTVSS VL: DIVMTQSPLSLPVTPGEPASISCRSSQSLLHSTGYNPLEWYLQKPGQSPQLLIYLGSNRASGVPDRFSGSGSGTDFTLKISRVEAEDVGIYYCMQTLQTPITFGQGTRLEIKR
0.028
